Hello, the source for this data is ChEMBL document CHEMBL3988442, in case you need it.

test system: Wolbachia pipientis; test: Anti-Wolbachia Cell-Based Screen; type: functional; design: scale not given: in the data most compounds retested in dose-response had high values; details: 5 µM
Out of some 48,000 compounds screened, about 13,000 (27%) showed an effect of 50% or more. The list shows a part of the results.
Examples of compounds with documented Percent Effect follow.
State the answer as a number, implicitly in %.

The examples below pair each entry with its known result.
>>> numeric_result("CCn1ncc2c1C(COC)CN(Cc1cccnc1)C2.O=C(O)C(F)(F)F.O=C(O)C(F)(F)F.O=C(O)C(F)(F)F (configuration not stated)")
103
>>> numeric_result("CC(C)CN(Cc1ccc(O)c(C(=O)O)c1)Cc1ccccn1")
-5.995
>>> numeric_result("N#Cc1ccsc1NC(=O)CCN1CCn2c(nnc2C2CC2)C1")
113.3
>>> numeric_result("Cc1cnc(CNC(=O)CC2CCc3ccccc32)cn1 (configuration not stated)")
1.8
>>> numeric_result("CC(c1ccccn1)N(C)Cc1ccc(CCC(C)(C)O)cc1 (configuration not stated)")
6.636

# Percent Effect of `CC(C)(C(=O)NCCC(=O)O)c1cccc(Br)c1` = -20.92

# Percent Effect of CCC1CN(Cc2c(O)ccc3oc4c(c23)CCCC4)CCO1 (configuration not stated) = -8.053

# Percent Effect of COc1ccc(C2=CCN(C(=O)C3CC(=O)N(C4CC4)C3)CC2)cc1 (configuration not stated) = -2.251

# Percent Effect of `COc1ccc(C2=CCN(C(=O)CN(C)CC(N)=O)CC2)cc1` = -8.253

# Percent Effect of COCC1CN(Cc2ccc(F)cc2)Cc2nnn(CC3CC3)c21.O=C(O)C(F)(F)F (configuration not stated) = -1.939

# Percent Effect of CC(c1ccccn1)N(C)Cc1ccc(-n2ccnc2)cc1 (configuration not stated) = 100.9

# Percent Effect of Cn1ncc2c1CN(Cc1cccnc1)CC2COCC1CC1.O=C(O)C(F)(F)F.O=C(O)C(F)(F)F.O=C(O)C(F)(F)F (configuration not stated) = 2.893

# Percent Effect of Cc1nc(CN2CCC3(CCCO3)CCC2=O)no1 (configuration not stated) = 31.71

# Percent Effect of CCn1cc2c(n1)CN(Cc1ccc(F)cc1)CC2COCC1CC1.O=C(O)C(F)(F)F (configuration not stated) = -4.171

# Percent Effect of `CN(Cc1ccc(-n2ccnc2)cc1)Cc1ncc[nH]1` = -4.002

# Percent Effect of `Cc1[nH]n(-c2ccccc2)c2nnc(N)c1-2` = -6.219

# Percent Effect of `Cl.O=C(C1CCCC1)N1C[C@@H](c2ccsc2)[C@@H]2CN(C3CCCC3)CC[C@@H]21` = 194.4

# Percent Effect of `Cc1cc(NC(=O)CN2CCn3c(nnc3C3CC3)C2)n(C)n1` = -5.451

# Percent Effect of `O=C(C1CCC1)N1CCN(Cc2ccsc2)[C@H]2CS(=O)(=O)C[C@H]21` = -4.22

# Percent Effect of `CC(C)CN(Cc1ccc(-n2cncn2)cc1)Cc1ccccn1` = 111.5

# Percent Effect of CCc1nccc(CN2CCC(CNC(=O)Nc3ccccc3)C2)n1 (configuration not stated) = -10.66

# Percent Effect of `COCCn1ccnc1CN(Cc1ccccn1)CC(C)C` = -12.4

====

test system: Wolbachia pipientis; experiment: Anti-Wolbachia Cell-Based Screen; assay type: functional; design: scale not given: in the data most compounds retested in dose-response had high values; conditions: 5 µM
Among all 48,000 compounds or so, about 13,000 (27%) showed an effect of 50% or more. Some of the results follow.
reported property: Percent Effect (%)
State the answer as a number, implicitly in %.

The examples below pair each entry with its known result.
>>> numeric_result("CN1CCN([C@@H]2CN(C(=O)c3ccsc3)[C@@H]3CCCO[C@H]23)CC1")
-4.041
>>> numeric_result("CN1CCC(c2n[nH]c(=O)n2CC2CCCCC2)CC1")
16.1
>>> numeric_result("Cc1ccoc1C(=O)N1C[C@@H](N2CCN(C)CC2)[C@H]2OCCC[C@H]21.O=C(O)C(F)(F)F.O=C(O)C(F)(F)F")
-7.066
>>> numeric_result("Cc1ccc(C(=O)N2C[C@@H]3CCCO[C@@H]3[C@H](N3CCOCC3)C2)cn1.O=C(O)C(F)(F)F.O=C(O)C(F)(F)F")
-9.984
>>> numeric_result("OCCN1CCCCC1c1cc[nH]n1 (stereo not given)")
167

# Percent Effect of `Cc1ccc(C(=O)N2C[C@@H](N3CCN(C)CC3)[C@H]3OCCC[C@H]32)cn1` = 115.4

# Percent Effect of `O=C(c1ccsc1)N1C[C@H](N2CCOCC2)[C@@H]2OCCC[C@@H]21` = 0.7214

# Percent Effect of N#Cc1cccc(N2CCCC3(C2)CN(c2nncs2)CCO3)c1 (stereo not given) = -22.42

# Percent Effect of `Cc1cnc(C(=O)N2C[C@H](N3CCOCC3)[C@@H]3OCCC[C@@H]32)cn1` = 115.1

# Percent Effect of OCCOCCN1CCCC1c1cccc(Cl)c1 (stereo not given) = -3.053

====

Examples of molecules with documented Percent Effect follow.
tested on: Wolbachia pipientis; assay: Anti-Wolbachia Cell-Based Screen; format: functional; parameters: scale not given: in the data most compounds retested in dose-response had high values; conditions: 5 µM
Screen size: about 48,000 compounds; about 13,000 (27%) showed an effect of 50% or more. The list shows a part of the results.
State the answer as a number, implicitly in %.

The examples below pair each entry with its known result.
>>> numeric_result("NC(=O)CN(CC(N)=O)Cc1cccc(Oc2ccccc2)c1")
-1.216
>>> numeric_result("CCOCCCNC(=O)c1cc(C)nc(N2CCCC2)n1")
24.14

Response field Percent Effect (Wolbachia pipientis) for item `Cc1cc(O)nc(C2CCN(C(=O)CO)CC2)n1` : 98.46

Response field Percent Effect (Wolbachia pipientis) for item CNCC(=O)N1CCCC(c2cccc(Nc3nc(C)cc(C)n3)n2)C1 (stereo unspecified) : -17.94

Response field Percent Effect (Wolbachia pipientis) for item Cc1cc(C)nc(Nc2cc(C)nc(C3CCN(C(=O)CO)C3)n2)n1 (stereo unspecified) : 114

Response field Percent Effect (Wolbachia pipientis) for item O=c1[nH]ccc2cc(-c3cc(O)cc(CCC4CCCCN4)c3)ccc12 (stereo unspecified) : -30.56

====

Examples of compounds with documented Percent Effect follow.
test system: Wolbachia pipientis; test: Anti-Wolbachia Cell-Based Screen; format: functional; set-up: scale not given: in the data most compounds retested in dose-response had high values; details: 5 µM
Screen size: about 48,000 compounds; about 13,000 (27%) showed an effect of 50% or more. Some of the results follow.
Please give the number followed by its unit.

The examples below pair each entry with its known result.
>>> result("COc1cc(C)sc1C(=O)N1CC(c2cccnc2)C1")
"-11.08%"
>>> result("Cc1ccc2nc(C(=O)N3C[C@@H](C(=O)O)[C@H](c4ccccc4)C3)cn2c1")
"107.2%"
>>> result("CCO[C@@H]1C[C@H]2CN(Cc3ccc(C)o3)CCN2C1.O=C(O)C(F)(F)F.O=C(O)C(F)(F)F")
"-6.795%"

# Percent Effect of `Cn1cc(CN2CCc3onc(COc4cccnc4)c3C2)cn1.O=C(O)C(F)(F)F.O=C(O)C(F)(F)F` = -7.028%

# Percent Effect of `CN(C)C(=O)N1CCc2onc(C(=O)Nc3cccnc3)c2C1.O=C(O)C(F)(F)F` = -32.01%

# Percent Effect of `Cc1ccc(CN2C[C@@H](C(=O)O)[C@H](c3cccnc3)C2)s1` = -1.112%

# Percent Effect of COc1ccc(S(=O)(=O)NCCC(O)c2ccoc2)c(C)c1 (centres undefined) = 14.16%

# Percent Effect of `Cc1ccc(CN2CCc3onc(C(=O)NC(C)C)c3C2)o1.O=C(O)C(F)(F)F` = 106.2%

# Percent Effect of `Cc1ccc(CN2CCc3onc(C(=O)Nc4cccnc4)c3C2)o1.O=C(O)C(F)(F)F.O=C(O)C(F)(F)F` = 119.7%

====

system: Wolbachia pipientis; test: Anti-Wolbachia Cell-Based Screen; type: functional; design: scale not given: in the data most compounds retested in dose-response had high values; details: 5 µM
The whole screen tested about 48,000 compounds, of which about 13,000 (27%) showed an effect of 50% or more. This is one part of the list.
Examples of compounds with documented Percent Effect follow.
State the answer as a number, implicitly in %.

>>> numeric_result("Cc1cc(N(C)CC2COc3ccccc3O2)nc(N)n1 (stereo not given)")
-8.93

Alright, here's another compound for you.
# Percent Effect of O=C(c1cc(-c2ccc(O)cc2)n[nH]1)N1CCCC1c1cccnc1 (stereo not given) = -9.956

====

system: Wolbachia pipientis; experiment: Anti-Wolbachia Cell-Based Screen; format: functional; parameters: scale not given: in the data most compounds retested in dose-response had high values; settings: 5 µM
Out of some 48,000 compounds screened, about 13,000 (27%) showed an effect of 50% or more. This is one part of the list.
Examples of molecules with documented Percent Effect follow.
State the answer as a number, implicitly in %.

>>> numeric_result("CC(NC1CCN(C(=O)C2CCCCC2)CC1)c1nccs1 (stereo not given)")
-8.519
>>> numeric_result("CCS(=O)(=O)CCSc1ccc(Cl)cc1")
82.02
>>> numeric_result("O=C(C1CCCC1)N1CCC(Nc2ccncn2)CC1")
23.24

# Percent Effect of `CCCNS(=O)(=O)Cc1ccc(Br)cc1` = -14.67

# Percent Effect of `Cc1ccc(-c2ccnc(N3CCC4(CC3)CNC(=O)C4)n2)c(C)n1` = -12.24
